# Measurement Notes: AUC (0 to infinity) in BALB/c mouse at 0.5 mg/kg, iv
# Format: ADME, organism-based
# Design: time infinity, dose 0.5 mg/kg, route intravenous
# Settings: plasma
Measurement Label: AUC(0-inf)

Which measured AUC(0-inf) value corresponds to COc1cc2c(c(OC)c1OC)-c1ccc(SC)c(=O)cc1[C@@H](NC(=O)C1CC1C)CC2 (stereo partly specified) ?
200 ng·h/mL

----------
# Measurement Notes: Volume of distribution at steady state in BALB/c mouse at 0.5 mg/kg, iv
# Type: ADME, organism-based
# Design: dose 0.5 mg/kg, route intravenous
# Settings: in vivo, read-out: Vdss
Measurement Label: Vd (L/kg)
Quick reminder: number only, in L/kg, skip the unit.

Which measured Vd value corresponds to COc1cc2c(c(OC)c1OC)-c1ccc(SC)c(=O)cc1[C@@H](NC(=O)C1CC1C)CC2 (stereo partly specified) ?
1.6

----------
# Measurement Notes: Half life in BALB/c mouse at 0.5 mg/kg, iv
# Format: ADME, organism-based
# Parameters: dose 0.5 mg/kg, route intravenous
# Settings: in vivo
Measurement Label: half-life (h)
Quick reminder: number only, in h, skip the unit.

Which measured half-life value corresponds to COc1cc2c(c(OC)c1OC)-c1ccc(SC)c(=O)cc1[C@@H](NC(=O)C1CC1C)CC2 (stereo partly specified) ?
2.9
